# Tested on: PA-1
# MEASUREMENT DESCRIPTION: Primary qHTS to identify gynecologic anti-cancer compounds using libraries of approved drugs and bioactive compounds (AID 1345084); also: nearly all actives have a fitted effect of over 55% in size
# EXPERIMENTAL SETUP: Gynecologic cancer cell panel viability, ATPlite luminescence, 48 h; series mostly up to 57.5 µM
Inconclusive results are not listed. The source made the active and inactive calls. Calls follow the shape of the dose curve; as a rule, active = well fitted cell-killing curve with a large enough effect; inconclusive = small, poorly fitted or top-dose-only effect, or effect the other way; inactive = flat fitted curve, though single readings scatter.
Possible outcomes: active, inactive

[
  {
    "MOLECULE": "c1ccc(-c2ccc(C(c3ccccc3)n3ccnc3)cc2)cc1 (stereo not given)",
    "ASSIGNED CLASS": "inactive"
  },
  {
    "MOLECULE": "C#C[C@]1(O)CC[C@H]2[C@@H]3CCC4=CC(=O)CC[C@@H]4[C@H]3CC[C@@]21C",
    "ASSIGNED CLASS": "active"
  },
  {
    "MOLECULE": "CC1(C)OC[C@@H](COC(=O)CCc2ccc(OC[C@@H](O)CNCCNC(=O)N3CCOCC3)cc2)O1",
    "ASSIGNED CLASS": "inactive"
  },
  {
    "MOLECULE": "CCCCC(=O)O[C@]1(C(=O)CO)CC[C@H]2[C@@H]3CCC4=CC(=O)CC[C@]4(C)[C@H]3[C@@H](O)C[C@@]21C",
    "ASSIGNED CLASS": "inactive"
  },
  {
    "MOLECULE": "CCCCC1=NC2(CCCC2)C(=O)N1Cc1ccc(-c2ccccc2-c2nn[nH]n2)cc1",
    "ASSIGNED CLASS": "inactive"
  }
]

----------
# MEASUREMENT DESCRIPTION: qHTS of pediatric cancer cell lines to identify multiple opportunities for drug repurposing: Confirmatory screen for Rh30 cells (AID 1347126); also: nearly all actives have a fitted effect of over 55% in size
# EXPERIMENTAL SETUP: Rh30 rhabdomyosarcoma cell viability; series mostly up to 45.9 µM
Results filed as inconclusive are left out. The source made the active and inactive calls. The call rests on the fitted dose curve; in most records, active means well fitted cell-killing curve with a large enough effect; inconclusive means small, poorly fitted or top-dose-only effect, or effect the other way; inactive means no such curve, though single readings can be large or run the other way.
Classes used: true (active), false (inactive)

[
  {
    "COMPOUND": "COc1c(C)c2c(c(O)c1C/C=C(\\C)CCC(=O)O)C(=O)OC2",
    "ASSIGNED CLASS": "true"
  },
  {
    "COMPOUND": "CCCCC(CC)CN=C(N)NC(N)=NCCCCCCN=C(N)NC(N)=NCC(CC)CCCC (centres undefined)",
    "ASSIGNED CLASS": "true"
  },
  {
    "COMPOUND": "CC(=O)[C@H]1CC[C@H]2[C@@H]3C[C@H](C)C4=CC(=O)CC[C@]4(C)[C@H]3[C@@H](O)C[C@]12C",
    "ASSIGNED CLASS": "false"
  },
  {
    "COMPOUND": "CC(=O)O[C@]1(C(C)=O)CC[C@H]2[C@@H]3C[C@H](C)C4=CC(=O)CC[C@]4(C)[C@H]3CC[C@@]21C",
    "ASSIGNED CLASS": "false"
  }
]

----------
# Test system: CRL-7250
# MEASUREMENT DESCRIPTION: Cytotoxic Profiling of Annotated Libraries Using Quantitative High-Throughput Screening (AID 1296008); also: nearly all actives have a fitted effect of over 60% in size; also: potency is read from the fitted curve at half-maximal effect
# EXPERIMENTAL SETUP: Five cell lines viability, CellTiter-Glo ATP luminescence, 48-72 h
Inconclusive results are not listed. Active and inactive are the calls of the source. Calls follow the shape of the dose curve; as a rule, active = well fitted inhibition curve with a large enough effect; inconclusive = small, poorly fitted or top-dose-only effect; inactive = flat fitted curve, though single readings scatter.
VALUE KIND: Potency

[
  {
    "COMPOUND": "COc1cc(-c2ccc(=O)[nH]n2)ccc1OC(F)F",
    "VALUE KIND": "Potency",
    "RECORDED MEASUREMENT": "1.19 µM (active)"
  },
  {
    "COMPOUND": "C[C@H](O)C(=O)Nc1c(I)c(C(=O)NC(CO)CO)c(I)c(C(=O)NC(CO)CO)c1I",
    "VALUE KIND": "Potency",
    "RECORDED MEASUREMENT": "inactive"
  },
  {
    "COMPOUND": "CC[N+](CC)(CCNC(=O)C(=O)NCC[N+](CC)(CC)Cc1ccccc1Cl)Cc1ccccc1Cl",
    "VALUE KIND": "Potency",
    "RECORDED MEASUREMENT": "inactive"
  },
  {
    "COMPOUND": "COc1cc(C=C2CCC/C(=C\\c3ccc(O)c(OC)c3)C2=O)ccc1O",
    "VALUE KIND": "Potency",
    "RECORDED MEASUREMENT": "15 µM (active)"
  },
  {
    "COMPOUND": "O=C1[C@H]2CCCC[C@H]2C(=O)N1CCCCN1CCN(c2nsc3ccccc23)CC1",
    "VALUE KIND": "Potency",
    "RECORDED MEASUREMENT": "inactive"
  },
  {
    "COMPOUND": "COc1cccc2c1C(=O)c1c(O)c3c(c(O)c1C2=O)C[C@@](O)(C(=O)CO)C[C@@H]3O[C@H]1C[C@H](N)[C@H](O)[C@H](C)O1",
    "VALUE KIND": "Potency",
    "RECORDED MEASUREMENT": "1.33 µM (active)"
  },
  {
    "COMPOUND": "CCCCCCCCCCCCCCCCCC(=O)OCC(O)CO (stereo not given)",
    "VALUE KIND": "Potency",
    "RECORDED MEASUREMENT": "inactive"
  },
  {
    "COMPOUND": "CN1[C@@H]2CC[C@H]1CC(OC(=O)c1c[nH]c3ccccc13)C2 (stereo not given in full)",
    "VALUE KIND": "Potency",
    "RECORDED MEASUREMENT": "inactive"
  },
  {
    "COMPOUND": "CCOc1ccc2nc3cc(N)ccc3c(N)c2c1",
    "VALUE KIND": "Potency",
    "RECORDED MEASUREMENT": "11.9 µM (active)"
  },
  {
    "COMPOUND": "CN(C)CCOc1ccccc1Cc1ccccc1",
    "VALUE KIND": "Potency",
    "RECORDED MEASUREMENT": "inactive"
  }
]

Origin of the recorded values: PubChem BioAssay (NCATS)
